Provide the reported CATDS of each item.
# System: MTHFD1
# assay.protocol: Kinobeads competition binding: MTHFD1;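 further: selectivity score: engagement of this protein divided by summed engagement of all targets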
# Parameters: species or system human
# condition.description: target MTHFD1
Reply: number alone, nothing else.

Any idea what CATDS was measured for N#CC1(c2ccc(NC(=O)c3cccnc3NCc3ccncc3)cc2)CCCC1 [Apatinib] ?
0

Bench note: what CATDS did CN(C)C/C=C/C(=O)Nc1cc2c(Nc3ccc(F)c(Cl)c3)ncnc2cc1O[C@H]1CCOC1 [Afatinib] show?
0

Field request: CATDS | item: Nc1ncnc2[nH]c(-c3ccccc3)nc12 [AH5015_KCGS]
0

Quick one: CATDS of CCN1CCN(Cc2ccc(Nc3ncc(F)c(-c4cc(F)c5nc(C)n(C(C)C)c5c4)n3)nc2)CC1 [Abemaciclib] ?
0

Using the record for CCc1cc2c(cc1N1CCC(N3CCOCC3)CC1)C(C)(C)c1[nH]c3cc(C#N)ccc3c1C2=O [Alectinib] , report its CATDS.
0

====

For each entry below, report its IC50 value.
# test.target: PKN3 (Homo sapiens, UniProt Q6P5Z2)
# Sequence (Q6P5Z2 whole entry): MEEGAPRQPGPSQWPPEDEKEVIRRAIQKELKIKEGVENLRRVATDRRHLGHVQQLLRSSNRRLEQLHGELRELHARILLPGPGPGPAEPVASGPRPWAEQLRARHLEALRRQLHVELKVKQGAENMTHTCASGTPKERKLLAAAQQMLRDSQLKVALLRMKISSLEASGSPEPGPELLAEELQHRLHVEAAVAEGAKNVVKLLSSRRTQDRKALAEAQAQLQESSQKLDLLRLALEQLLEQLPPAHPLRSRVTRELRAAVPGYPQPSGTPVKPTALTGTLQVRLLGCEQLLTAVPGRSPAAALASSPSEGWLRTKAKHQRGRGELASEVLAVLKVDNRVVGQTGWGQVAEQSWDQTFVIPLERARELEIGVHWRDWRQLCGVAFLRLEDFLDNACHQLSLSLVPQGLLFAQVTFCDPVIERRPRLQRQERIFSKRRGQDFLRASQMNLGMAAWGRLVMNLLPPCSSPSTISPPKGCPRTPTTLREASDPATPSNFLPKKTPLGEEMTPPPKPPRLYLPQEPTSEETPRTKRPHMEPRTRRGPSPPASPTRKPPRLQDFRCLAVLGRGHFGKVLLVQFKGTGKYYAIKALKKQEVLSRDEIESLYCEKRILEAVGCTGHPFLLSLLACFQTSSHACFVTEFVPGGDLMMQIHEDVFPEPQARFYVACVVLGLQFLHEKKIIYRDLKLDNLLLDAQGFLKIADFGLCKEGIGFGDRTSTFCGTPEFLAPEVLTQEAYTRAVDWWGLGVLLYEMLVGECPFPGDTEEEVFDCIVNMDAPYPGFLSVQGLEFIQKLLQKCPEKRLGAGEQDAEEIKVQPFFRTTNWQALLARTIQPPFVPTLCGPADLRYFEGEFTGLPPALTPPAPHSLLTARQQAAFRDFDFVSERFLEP
# assay.protocol: NanoBRET in-cell target engagement in HEK293T cells: PKN3;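 further: Full-length PKN3 with C-terminal NanoLuc expressed in HEK293T cells, serial inhibitor dilutions competing against Kinase Tracer K5 at 500 nM, BRET read after 2 h at 37 °C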
# Format: cell-based
# Design: full-length PKN3, CSNK2A1 or CSNK2A2 ORF; host or cells: HEK293T
# condition.description: biological replicate number 3; read-out: Rep 3 IC50 NanoBRET PKN3
Record the value in µM, omitting the unit from your answer.

// lookup IC50 for Fc1ccc(-c2c(-c3ccncc3)[nH]c3cccnc23)cc1 [RO1153853-000]
0.164

Endpoint output: IC50 of CCn1c(-c2nonc2N)nc2c(C#CC(C)(C)O)nc(CN3CCCC3)cc21 [GSK1000163A] . Value?
6.13

Fill in the blank: the reported IC50 of CCn1c(-c2nonc2N)nc2c(C#CC(C)(C)O)nc(OCCNC)cc21 [GSK949675A] is ____.
0.149

# IC50 lookup, item NCc1ccc(-c2nc(-c3ccncc3)c(-c3ccc(Cl)c(O)c3)[nH]2)cc1 [SB-476429-A]
0.0867

Any idea what IC50 was measured for CCn1c(-c2nonc2N)nc2c(C#CC(C)(C)O)nc(OCCN)cc21 [GSK902056A] ?
0.027

Need IC50 of CNc1ncc2cc(-c3cc(NC(=O)NCCC(C)(C)C)c(F)cc3C)c(C)nc2n1 [LY3009120, reference compound] , thanks.
0.111

====

For each of the compounds below, state its CATDS.
# test.target: CDKL5 (Homo sapiens)
# Construct: endogenous in cells
# Sequence (O76039 whole entry): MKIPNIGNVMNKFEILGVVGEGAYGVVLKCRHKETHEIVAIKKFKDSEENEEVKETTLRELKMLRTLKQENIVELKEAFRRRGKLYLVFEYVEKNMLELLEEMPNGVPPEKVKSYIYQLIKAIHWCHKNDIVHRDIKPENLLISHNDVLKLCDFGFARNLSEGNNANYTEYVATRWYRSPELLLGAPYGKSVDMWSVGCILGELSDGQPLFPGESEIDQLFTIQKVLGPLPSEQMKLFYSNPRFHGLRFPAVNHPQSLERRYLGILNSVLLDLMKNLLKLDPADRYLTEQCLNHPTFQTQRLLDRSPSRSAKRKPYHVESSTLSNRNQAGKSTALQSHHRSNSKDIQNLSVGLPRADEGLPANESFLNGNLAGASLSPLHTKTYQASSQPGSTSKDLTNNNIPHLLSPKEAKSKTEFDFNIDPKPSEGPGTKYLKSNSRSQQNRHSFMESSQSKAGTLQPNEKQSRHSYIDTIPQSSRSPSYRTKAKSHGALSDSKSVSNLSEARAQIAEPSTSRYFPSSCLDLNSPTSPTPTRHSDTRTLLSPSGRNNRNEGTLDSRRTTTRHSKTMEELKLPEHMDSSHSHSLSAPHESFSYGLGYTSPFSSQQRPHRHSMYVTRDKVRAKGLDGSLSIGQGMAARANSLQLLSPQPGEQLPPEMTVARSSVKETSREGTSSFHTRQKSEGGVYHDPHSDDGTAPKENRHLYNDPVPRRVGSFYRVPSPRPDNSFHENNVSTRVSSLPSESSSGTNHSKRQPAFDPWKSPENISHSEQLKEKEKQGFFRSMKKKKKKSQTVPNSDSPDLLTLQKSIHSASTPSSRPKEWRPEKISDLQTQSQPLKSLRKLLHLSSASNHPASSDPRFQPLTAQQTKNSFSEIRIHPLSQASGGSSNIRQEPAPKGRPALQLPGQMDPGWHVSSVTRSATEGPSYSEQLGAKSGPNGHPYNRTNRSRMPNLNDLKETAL
# assay.protocol: Kinobeads competition binding: CDKL5
# condition.description: target CDKL5
# Excerpt: Supplement 41589_2023_1459_MOESM4_ESM.xlsx, sheet "CATDS matrix" | column: CDKL5

# get_value(readout='CATDS', item= N#CC1(c2ccc(NC(=O)c3cccnc3NCc3ccncc3)cc2)CCCC1 [Apatinib] )
0

Which CATDS value is on record for Nc1ncnc2[nH]c(-c3ccccc3)nc12 [AH5015_KCGS] ?
0

Find the recorded CATDS belonging to CCN1CCN(Cc2ccc(Nc3ncc(F)c(-c4cc(F)c5nc(C)n(C(C)C)c5c4)n3)nc2)CC1 [Abemaciclib] and report it.
0.6907

Reported CATDS, compound CCc1cc2c(cc1N1CCC(N3CCOCC3)CC1)C(C)(C)c1[nH]c3cc(C#N)ccc3c1C2=O [Alectinib] : ____
0

Which CATDS value belongs to CN(C)C/C=C/C(=O)Nc1cc2c(Nc3ccc(F)c(Cl)c3)ncnc2cc1O[C@H]1CCOC1 [Afatinib] ?
0

====

# test.target: AAK1 (Homo sapiens)
# Construct: to maximize the representation of endogenous proteins; endogenous in cells
# assay.protocol: Kinobeads two-dose competition binding: AAK1
# condition.description: sheet CATDS matrix 2; Gene Name AAK1
Field: CATDS. Provide a value for each of the molecules that follow.
Form field (numeric): enter value without unit.

What value of CATDS has been recorded for this entry: CNc1nc(-c2ccc3c(N)n[nH]c3c2)cc(N2C[C@@H](C(=O)NC3CCCCC3)CC[C@H]2C)n1 [GSK2334470]
0

I would be grateful if you could share the reported CATDS for COc1cc2ncn(-c3cc(OCC4CCCO4)c(C(N)=O)s3)c2cc1OC (centres unmarked) [GSK204607A] .
0

Quick one: CATDS for COc1cc2c(cc1Nc1nc(N3CCc4ccccc43)c3cc[nH]c3n1)N(C(=O)CN(C)C)CC2 [GSK2186269A] ?
0

Using the record for CNC(=O)c1c(F)cccc1Nc1nc(Nc2cc3c(cc2OC)CCN3C(=O)CN(C)C)nc2[nH]ccc12 [GSK1838705] , report its CATDS.
0

Return reported CATDS; argument: CNC(=O)c1ccccc1Nc1nc(Nc2cccc(CS(C)(=O)=O)c2)ncc1C [GSK1520489A]
0

Would you kindly share the measured CATDS for CCCc1cc(N2CCCN(C)CC2)nc2sc3c(N)ncnc3c12 [BI00604564] ?
0

// CATDS lookup, key: CC(C(=O)NC1CCN(c2ccnc(Nc3ccc(F)cc3)n2)C1)c1ccc(Cl)cc1 (centres unmarked) [GSK1379713A]
0

May I ask what CATDS has been recorded for O=C(c1ccc(F)c(F)c1Nc1ccc(I)cc1F)N1CC(O)([C@@H]2CCCCN2)C1 [Cobimetinib, reference compound] ?
0

====

# test.target: BCR (Homo sapiens, UniProt P00519+P11274)
# Construct: endogenous in cells
# Sequence (P11274+P00519 fused): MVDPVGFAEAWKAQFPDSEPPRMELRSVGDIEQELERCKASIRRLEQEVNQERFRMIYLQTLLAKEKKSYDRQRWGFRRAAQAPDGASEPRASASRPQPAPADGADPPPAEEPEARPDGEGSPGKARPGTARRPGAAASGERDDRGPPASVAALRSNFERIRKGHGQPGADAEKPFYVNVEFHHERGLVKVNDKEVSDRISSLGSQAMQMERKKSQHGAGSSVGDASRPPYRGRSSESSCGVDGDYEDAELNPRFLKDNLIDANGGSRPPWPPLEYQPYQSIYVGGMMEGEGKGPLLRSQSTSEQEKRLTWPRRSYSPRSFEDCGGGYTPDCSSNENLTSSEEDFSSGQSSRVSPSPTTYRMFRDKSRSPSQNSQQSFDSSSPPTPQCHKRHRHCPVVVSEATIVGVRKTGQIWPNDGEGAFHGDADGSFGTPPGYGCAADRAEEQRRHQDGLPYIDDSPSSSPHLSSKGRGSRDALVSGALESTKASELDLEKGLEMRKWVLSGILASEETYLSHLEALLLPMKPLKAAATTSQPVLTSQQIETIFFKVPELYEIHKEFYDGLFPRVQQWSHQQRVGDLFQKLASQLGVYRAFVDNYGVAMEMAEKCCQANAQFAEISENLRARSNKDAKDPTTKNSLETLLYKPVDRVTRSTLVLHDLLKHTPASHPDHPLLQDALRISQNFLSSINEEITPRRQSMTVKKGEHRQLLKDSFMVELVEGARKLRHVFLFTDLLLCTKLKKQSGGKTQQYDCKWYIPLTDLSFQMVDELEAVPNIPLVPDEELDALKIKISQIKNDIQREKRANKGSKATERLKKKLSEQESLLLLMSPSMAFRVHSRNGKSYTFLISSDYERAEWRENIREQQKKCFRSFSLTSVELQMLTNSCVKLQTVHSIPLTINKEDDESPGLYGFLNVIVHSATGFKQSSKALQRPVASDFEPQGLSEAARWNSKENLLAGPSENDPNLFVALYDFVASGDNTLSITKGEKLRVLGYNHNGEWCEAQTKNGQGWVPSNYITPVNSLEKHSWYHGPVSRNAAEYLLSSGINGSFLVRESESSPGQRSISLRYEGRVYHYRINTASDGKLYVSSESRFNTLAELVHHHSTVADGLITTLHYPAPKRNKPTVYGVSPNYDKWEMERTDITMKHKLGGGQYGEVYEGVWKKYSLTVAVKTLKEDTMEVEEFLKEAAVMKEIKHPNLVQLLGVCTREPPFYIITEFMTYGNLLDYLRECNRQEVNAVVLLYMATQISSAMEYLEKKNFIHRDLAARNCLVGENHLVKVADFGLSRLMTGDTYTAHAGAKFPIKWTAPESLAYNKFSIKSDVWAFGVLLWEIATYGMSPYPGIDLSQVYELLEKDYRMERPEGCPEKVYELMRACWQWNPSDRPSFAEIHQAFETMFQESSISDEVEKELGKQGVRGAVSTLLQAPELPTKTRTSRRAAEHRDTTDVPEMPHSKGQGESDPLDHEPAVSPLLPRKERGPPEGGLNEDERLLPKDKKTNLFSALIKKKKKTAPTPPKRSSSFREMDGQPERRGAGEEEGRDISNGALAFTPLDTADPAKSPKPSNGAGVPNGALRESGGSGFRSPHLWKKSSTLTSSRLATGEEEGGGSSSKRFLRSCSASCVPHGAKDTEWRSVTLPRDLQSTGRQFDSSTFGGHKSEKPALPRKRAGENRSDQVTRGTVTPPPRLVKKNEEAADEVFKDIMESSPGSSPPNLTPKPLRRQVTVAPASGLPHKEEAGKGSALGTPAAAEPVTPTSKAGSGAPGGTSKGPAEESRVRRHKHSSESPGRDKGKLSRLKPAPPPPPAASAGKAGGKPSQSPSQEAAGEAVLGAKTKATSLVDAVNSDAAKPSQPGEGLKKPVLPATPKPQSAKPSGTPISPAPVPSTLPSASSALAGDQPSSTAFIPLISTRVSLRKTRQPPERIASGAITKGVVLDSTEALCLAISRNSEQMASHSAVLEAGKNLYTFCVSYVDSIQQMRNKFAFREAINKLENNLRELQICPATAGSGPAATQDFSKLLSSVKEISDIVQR
# assay.protocol: Kinobeads competition binding: BCR
# condition.description: target BCR
Give measured CATDS for each item. Keep answers brief.
Form rule: numeric answer, no unit written next to it.

Which CATDS is listed for `Nc1ncnc2[nH]c(-c3ccccc3)nc12` ?
0.0268

Recorded CATDS of `CN(C)C/C=C/C(=O)Nc1cc2c(Nc3ccc(F)c(Cl)c3)ncnc2cc1O[C@H]1CCOC1` , please.
0

Bench note: what CATDS did `CCc1cc2c(cc1N1CCC(N3CCOCC3)CC1)C(C)(C)c1[nH]c3cc(C#N)ccc3c1C2=O` show?
0

Please report the recorded CATDS for `CCN1CCN(Cc2ccc(Nc3ncc(F)c(-c4cc(F)c5nc(C)n(C(C)C)c5c4)n3)nc2)CC1` .
0

Which CATDS is listed for `N#CC1(c2ccc(NC(=O)c3cccnc3NCc3ccncc3)cc2)CCCC1` ?
0

====

# test.target: AAK1 (Homo sapiens, UniProt Q2M2I8)
# Construct: to maximize the representation of endogenous proteins; endogenous in cells
# Sequence (Q2M2I8 whole entry): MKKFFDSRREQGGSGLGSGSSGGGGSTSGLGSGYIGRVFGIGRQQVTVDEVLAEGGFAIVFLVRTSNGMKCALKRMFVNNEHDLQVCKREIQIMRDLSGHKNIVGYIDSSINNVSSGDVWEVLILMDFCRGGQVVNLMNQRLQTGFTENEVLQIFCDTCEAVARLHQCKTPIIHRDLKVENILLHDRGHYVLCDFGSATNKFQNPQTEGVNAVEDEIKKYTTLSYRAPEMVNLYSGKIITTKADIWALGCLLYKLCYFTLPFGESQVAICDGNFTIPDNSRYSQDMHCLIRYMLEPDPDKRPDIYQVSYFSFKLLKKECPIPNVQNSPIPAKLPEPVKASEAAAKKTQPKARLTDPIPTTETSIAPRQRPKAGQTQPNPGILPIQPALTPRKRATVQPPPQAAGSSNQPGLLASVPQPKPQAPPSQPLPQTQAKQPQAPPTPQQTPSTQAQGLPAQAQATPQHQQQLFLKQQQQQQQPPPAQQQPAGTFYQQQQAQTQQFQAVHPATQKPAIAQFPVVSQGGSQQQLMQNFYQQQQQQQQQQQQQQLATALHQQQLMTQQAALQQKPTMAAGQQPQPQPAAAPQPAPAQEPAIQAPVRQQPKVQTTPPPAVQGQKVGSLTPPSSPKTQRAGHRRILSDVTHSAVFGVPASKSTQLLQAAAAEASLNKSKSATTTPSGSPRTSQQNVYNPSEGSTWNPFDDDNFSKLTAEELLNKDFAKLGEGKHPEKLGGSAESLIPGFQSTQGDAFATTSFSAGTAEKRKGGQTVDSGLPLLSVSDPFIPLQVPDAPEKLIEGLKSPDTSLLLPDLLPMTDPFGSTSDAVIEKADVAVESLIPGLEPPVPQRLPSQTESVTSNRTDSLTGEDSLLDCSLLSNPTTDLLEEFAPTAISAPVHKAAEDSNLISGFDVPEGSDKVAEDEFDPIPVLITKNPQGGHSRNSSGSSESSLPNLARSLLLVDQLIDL
# assay.protocol: Kinobeads two-dose competition binding: AAK1;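 further: kinobeads competition pulldown from cell lysate, compound preincubated 45 min at 4 °C, bead-bound protein measured by label-free mass spectrometry against DMSO vehicle control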
# condition.description: sheet "Kinobeads Drugmatrix - all"; unit inferred; same values below 1000 recur in sheet "nanomolar"; read-out: Kinobeads Drugmatrix - all: apparent Kd, AAK1
endpoint.label: potency estimated from few doses (nM)
Write the value in nM as a bare number.

Would you mind telling me what potency estimated from few doses value was observed for NCC(NCc1ccc(-c2ccnc3[nH]ccc23)s1)c1ccccc1 (centres unmarked) [GSK1321565A] ?
820

Sample CNc1nccc(-c2ccc3c(N)n[nH]c3c2)n1 [GSK2206003A] — what was its potency estimated from few doses?
108

Given the entry Cc1cc(-c2ccnc(Nc3cccc(C#N)c3)n2)cc(C)c1O [GSK1440913A] , report its measured potency estimated from few doses.
120

Data request, read-out potency estimated from few doses, for NCC(NC(=O)c1cc(-c2ccnc3[nH]ccc23)cs1)c1ccccc1 (centres unmarked) [GSK1229959A]
79.6

Given the molecule Cc1cccc(Nc2nc(NCCN)ncc2C(N)=O)c1 [GSK1292139B] , what is its reported potency estimated from few doses?
164

Value lookup for potency estimated from few doses; key = COc1ccc(Nc2ncc(C#N)c(Nc3ccccc3C(N)=O)n2)cc1N1CCN(C)CC1 [GSK1558669A]
164

Sample NCC(C(=O)Nc1cc(Br)c(-c2ccnc3[nH]ccc23)s1)c1ccccc1 (centres unmarked) [GSK1269851A] — what was its potency estimated from few doses?
84.4

Would you mind telling me what potency estimated from few doses value was observed for CC(C)Nc1cc(-c2ccc3c(N)n[nH]c3c2)nc(N)n1 [GSK2221681A] ?
149

// potency estimated from few doses lookup, key: COc1cc(Nc2nccc(N3CCC(NC(=O)c4cccc(NC(C)=O)c4)C3)n2)cc(OC)c1OC (centres unmarked) [GSK1379754A]
410

====

Exercise: state measured CATDS for each of the compounds provided.
# Test system: PI4KB
# assay.protocol: Kinobeads competition binding: PI4KB;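 further: selectivity score: engagement of this protein divided by summed engagement of all targets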
# Set-up: species or system human
# condition.description: target PI4KB
Lab note: record just the number, no unit beside it.

# get_value(readout='CATDS', item= `CCN1CCN(Cc2ccc(Nc3ncc(F)c(-c4cc(F)c5nc(C)n(C(C)C)c5c4)n3)nc2)CC1` )
0

Param item = `N#CC1(c2ccc(NC(=O)c3cccnc3NCc3ccncc3)cc2)CCCC1` ; retrieve measured CATDS.
0

// query CATDS value for entry `CCc1cc2c(cc1N1CCC(N3CCOCC3)CC1)C(C)(C)c1[nH]c3cc(C#N)ccc3c1C2=O`
0

Which CATDS reading was recorded for the compound `Nc1ncnc2[nH]c(-c3ccccc3)nc12` ?
0
